Data credit: patent US20250297004A1

# SYSTEM UNDER TEST: T1, human Nectin-4 (Homo sapiens, UniProt Q96NY8)
# T1 sequence (Q96NY8 32-510): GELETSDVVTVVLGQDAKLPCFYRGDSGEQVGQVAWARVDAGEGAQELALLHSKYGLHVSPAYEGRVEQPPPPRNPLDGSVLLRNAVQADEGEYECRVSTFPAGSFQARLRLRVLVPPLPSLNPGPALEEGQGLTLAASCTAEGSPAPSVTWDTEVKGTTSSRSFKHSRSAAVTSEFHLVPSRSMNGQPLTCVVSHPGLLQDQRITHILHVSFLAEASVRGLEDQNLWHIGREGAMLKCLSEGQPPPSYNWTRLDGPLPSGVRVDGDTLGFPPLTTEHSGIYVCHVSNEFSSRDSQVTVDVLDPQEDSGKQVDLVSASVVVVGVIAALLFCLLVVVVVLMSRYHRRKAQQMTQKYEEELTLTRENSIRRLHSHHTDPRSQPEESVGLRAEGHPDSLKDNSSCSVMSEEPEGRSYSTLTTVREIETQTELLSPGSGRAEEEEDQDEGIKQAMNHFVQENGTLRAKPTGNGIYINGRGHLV
# METHOD SUMMARY: Binding to human Nectin-4 by SPR
# REPORTED CONDITIONS: SPR association constant; first set (Table 4)
Task for the reader: assign each of the following molecules its reported ka.
Expressed in M⁻¹ s⁻¹, but write only the number.

Exercise: Record request: ka value, item H1L0 (antibody, human IgG1, V domains shown, human IgG1 isotype) VH: QVQLVQSGAEVKKPGASVKVSCKASGYTFTSYWMHWVRQAPGQGLEWMGEIDPSDSYTNYNQKFKGRVTMTLDTSTSTTYMELSSLRSEDTAVYYCARGYGNYGDYWGQGTLVTVSS VL: DIVMTQSPLSLPVTPGEPASISCRSSKSLLHSNGITYLYWYLQKPGQSPQLLIYQMSNLASGVPDRFSGSGSGTDFTLKISRVEAEDVGVYYCAQNLELPWTFGGGTKVEIK
Solution: 110000

Exercise: What ka value was documented for this molecule, 5E7 (antibody, V domains shown) VH: QVQLQQPGAELVKPGASVKLSCKASGYIFTSYWMHWVKQRPGQGLEWIGEIDPSDSYTNYNQKFKGKATLTLDKSSSTTYMQLSSLTSEDSAVYYCVRGYGNYGDYWGQGTTLTVSSASTKGP VL: DVVMTQAAFSNPVTLGTSASISCRSSKSLLHSNGITYLYWYLQKPGQSPQLLIYQMSNLASGVPDRFSSSGSGTDFTLRISRVEAEDVGVYYCAQNLELPWTFGGGTKLEIKRTVAAP ?
Solution: 480000

Exercise: Returns the measured ka for the input molecule. Input: H3L0 (antibody, human IgG1, V domains shown, human IgG1 isotype) VH: QVQLVQSGAEVKKPGASVKVSCKASGYIFTSYWMHWVRQAPGQGLEWMGEIDPSDSYTNYNQKFKGRVTMTLDKSTSTTYMELSSLRSEDTAVYYCARGYGNYGDYWGQGTLVTVSS VL: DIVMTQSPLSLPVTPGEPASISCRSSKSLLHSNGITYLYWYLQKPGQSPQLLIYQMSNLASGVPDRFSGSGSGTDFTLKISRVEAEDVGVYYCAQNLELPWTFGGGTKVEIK
Solution: 110000

Exercise: Recorded ka for H2L0 (antibody, human IgG1, V domains shown, human IgG1 isotype) VH: QVQLVQSGAEVKKPGASVKVSCKASGYTFTSYWMHWVRQAPGQGLEWMGEIDPSDSYTNYNQKFKGRVTMTLDKSTSTTYMELSSLRSEDTAVYYCARGYGNYGDYWGQGTLVTVSS VL: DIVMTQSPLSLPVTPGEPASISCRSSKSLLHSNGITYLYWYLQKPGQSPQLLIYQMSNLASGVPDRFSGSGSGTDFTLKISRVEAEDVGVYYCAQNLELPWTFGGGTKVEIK , please?
Solution: 130000

Exercise: Need ka, item H3L1 (antibody, human IgG1, V domains shown, human IgG1 isotype) VH: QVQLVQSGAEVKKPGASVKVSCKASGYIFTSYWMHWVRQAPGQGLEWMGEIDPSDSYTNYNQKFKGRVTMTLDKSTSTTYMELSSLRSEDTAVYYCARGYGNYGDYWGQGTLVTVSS VL: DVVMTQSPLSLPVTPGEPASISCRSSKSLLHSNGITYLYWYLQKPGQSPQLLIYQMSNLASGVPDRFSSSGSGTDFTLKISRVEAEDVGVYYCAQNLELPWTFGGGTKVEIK
Solution: 400000

Exercise: # ka lookup, item H3L3 (antibody, human IgG1, V domains shown, human IgG1 isotype) VH: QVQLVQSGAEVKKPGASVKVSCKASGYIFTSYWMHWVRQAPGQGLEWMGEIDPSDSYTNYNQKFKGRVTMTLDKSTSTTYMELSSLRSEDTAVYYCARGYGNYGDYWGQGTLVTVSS VL: DVVMTQSALSNPVTPGEPASISCRSSKSLLHSNGITYLYWYLQKPGQSPQLLIYQMSNLASGVPDRFSSSGSGTDFTLKISRVEAEDVGVYYCAQNLELPWTFGGGTKVEIK
Solution: 260000

Exercise: Record request: ka value, item H0L0 (antibody, human IgG1, V domains shown, human IgG1 isotype; also called HOLO; humanized 5E7 variant H0L0) VH: QVQLVQSGAEVKKPGASVKVSCKASGYTFTSYWMHWVRQAPGQGLEWMGEIDPSDSYTNYNQKFKGRVTMTRDTSTSTVYMELSSLRSEDTAVYYCARGYGNYGDYWGQGTLVTVSS VL: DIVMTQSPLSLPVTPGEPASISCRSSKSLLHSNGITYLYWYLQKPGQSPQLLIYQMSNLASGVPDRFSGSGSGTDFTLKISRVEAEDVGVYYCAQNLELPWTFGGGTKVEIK
Solution: 170000

Exercise: Return reported ka; argument: H3L2 (antibody, human IgG1, V domains shown, human IgG1 isotype) VH: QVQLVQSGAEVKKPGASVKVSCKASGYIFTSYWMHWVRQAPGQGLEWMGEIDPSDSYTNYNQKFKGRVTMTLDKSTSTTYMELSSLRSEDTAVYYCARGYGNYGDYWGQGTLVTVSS VL: DVVMTQSPLSNPVTPGEPASISCRSSKSLLHSNGITYLYWYLQKPGQSPQLLIYQMSNLASGVPDRFSSSGSGTDFTLKISRVEAEDVGVYYCAQNLELPWTFGGGTKVEIK
Solution: 310000
